Reported inhibition at 10000 µg/mL values follow for various molecules
target: Testicular bovine hyaluronidase (Bos taurus); construct: purchased Sigma Chemical Company; host or cells: bovine testis; assay: Hyaluronidase inhibition in vitro (chondroitin sulfate agar plate); format: biochemical; conditions: sodium salts; Conc. of Test Solution 10 mg/ml
Please state the number and follow it with the unit.

# example entries with known answers
Could you please provide reported inhibition at 10000 µg/mL for CCCCCCCCCCCOS(=O)(=O)O [n-hendecyl] ? Thanks! 100%

Could you please provide reported inhibition at 10000 µg/mL for CCCCCCCCCCCCCOS(=O)(=O)O [n-tridecyl] ? Thanks! 80%

Could you please provide reported inhibition at 10000 µg/mL for CCCCCCCCCCCCOS(=O)(=O)[O-].[Na+] [n-dodecyl, Sodium lauryl sulfate] ? Thanks! 71%

Could you please provide reported inhibition at 10000 µg/mL for CCCCCCCCCCCCCCCCCOS(=O)(=O)O [n-heptadecyl] ? Thanks! 23%

Could you please provide reported inhibition at 10000 µg/mL for CCCCCCCCCCCCCCCCCCCCOS(=O)(=O)O [n-eicosyl] ? Thanks! 0%

---
Could you please provide reported inhibition at 10000 µg/mL for CCCCCCCCCCCCCCCCCCOS(=O)(=O)O [n-octadecyl] ? Thanks! 30%

Could you please provide reported inhibition at 10000 µg/mL for CCCCCCCCCCCCCCCCOS(=O)(=O)O [n-hexadecyl] ? Thanks! 75%

Could you please provide reported inhibition at 10000 µg/mL for CCCCCCCCCCCCCCCOS(=O)(=O)O [n-pentadecyl] ? Thanks! 60%

###

Biological target: Testicular bovine hyaluronidase (Bos taurus, UniProt Q2YDK3)
Construct: purchased Sigma Chemical Company; host or cells: bovine testis
Sequence (Q2YDK3 36-553): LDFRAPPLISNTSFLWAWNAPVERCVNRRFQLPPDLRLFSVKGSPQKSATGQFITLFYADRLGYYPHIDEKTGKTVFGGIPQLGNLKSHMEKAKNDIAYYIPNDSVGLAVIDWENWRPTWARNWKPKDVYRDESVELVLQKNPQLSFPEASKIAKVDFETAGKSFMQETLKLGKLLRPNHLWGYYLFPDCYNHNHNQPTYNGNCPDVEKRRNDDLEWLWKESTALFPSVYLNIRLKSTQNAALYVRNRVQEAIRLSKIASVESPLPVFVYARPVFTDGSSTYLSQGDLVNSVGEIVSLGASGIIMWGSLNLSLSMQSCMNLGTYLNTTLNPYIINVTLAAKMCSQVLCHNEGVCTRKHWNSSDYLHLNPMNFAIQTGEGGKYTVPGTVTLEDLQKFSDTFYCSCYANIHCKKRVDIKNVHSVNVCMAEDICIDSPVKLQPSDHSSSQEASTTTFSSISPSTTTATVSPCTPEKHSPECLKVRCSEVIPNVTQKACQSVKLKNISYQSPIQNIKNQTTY
Test: Hyaluronidase inhibition in vitro (chondroitin sulfate agar plate)
Format: biochemical
Conditions: sodium salts; Conc. of Test Solution 1 mg/ml
measurement_type: inhibition at 1000 µg/mL (%)
Write the answer as a number in %, unit excluded.

Could you please provide reported inhibition at 1000 µg/mL for CCCCCCCC(CCCCCC)OS(=O)(=O)O (stereo not shown) ? Thanks! 0

Could you please provide reported inhibition at 1000 µg/mL for `CC(C)CCCCCCCCCCCOS(=O)(=O)O` ? Thanks! 7

Could you please provide reported inhibition at 1000 µg/mL for CCCCCCCCC(CCCCCCC)OS(=O)(=O)O (stereo not shown) ? Thanks! 0

###

Reported inhibition at 1000 µg/mL values follow for various molecules
molecular target: Testicular bovine hyaluronidase (Bos taurus, UniProt Q2YDK3); construct: purchased Sigma Chemical Company; host or cells: bovine testis; assay: Hyaluronidase inhibition in vitro (chondroitin sulfate agar plate); assay type: biochemical; settings: sodium salts; Conc. of Test Solution 1 mg/ml
Write the answer as a number in %, unit excluded.

Could you please provide reported inhibition at 1000 µg/mL for CC(C)CCCC(C)CCCC(C)CCOS(=O)(=O)O (stereo not shown) ? Thanks! 39

---
Could you please provide reported inhibition at 1000 µg/mL for `CCCCCCCCCCCCCCCCCCCCCCCCCCCOS(=O)(=O)O` ? Thanks! 0

Could you please provide reported inhibition at 1000 µg/mL for CCCCCCCCCCCCC(C)OS(=O)(=O)O (stereo not shown) ? Thanks! 100

Could you please provide reported inhibition at 1000 µg/mL for `CCCCCCCCCCCCCCCCCCCCCCCCOS(=O)(=O)O` ? Thanks! 0
